The reported numbers originate from PubChem BioAssay AID330.

# Test system: P388 leukemia ip, CD2F1 mice, survival T/C
# assay_info: NCI In Vivo Anticancer Drug Screen. Data for tumor model P388 Leukemia (intraperitoneal) in CD2F1 (CDF1) mice
# condition_label: endpoint: median survival time; dose: 50.0 mg/kg/injection; schedule: Q01DX005 (ip); vehicle: Klucel (hydroxypropylcellulose) (HPC); higher = longer survival
Toxic doses and inconclusive results are not listed.
Please provide measured T/C for the entries that follow.

Solved cases (5 shown):
compound	result
C=C(C)COC(=O)C1C2CC(C3OC23)C1C(=O)OCC(=C)C (configuration not stated)	102 % of control
CCc1c(C#N)c(N)c2c(N)c(C(=O)c3ccccc3)sc2c1C	89 % of control
C=CC(=O)OCCCN(CCCC)CCCC	95 % of control
O/N=C(/C=N/O)SCCSC(/C=N/O)=N/O	110 % of control
O=CNC(Cc1ccccc1)c1ccc(OCc2ccccc2)cc1 (configuration not stated)	98 % of control

For every item below, please supply its T/C.
1. CC(Cc1ccccc1)NC(=O)c1cccnc1 (configuration not stated)
2. CC(C)C1CC(O)C(C)C(CN2CCCCC2)C1 (configuration not stated)
3. CN(C)c1cc[n+](-c2c([O-])c3ccccc3n(-c3ccccc3)c2=O)cc1
4. N/C(=N\[N+](=O)[O-])N1CCCCCC1
5. Cn1cc(NC(=O)c2cc(NC(=O)c3cc(NC=O)cn3C)cn2C)cc1C(=O)O
6. CCCCN(CCCC)CC1CC(C(C)(C)C)CCC1O (configuration not stated)

Reply:
98 % of control
105 % of control
107 % of control
107 % of control
107 % of control
91 % of control

Task item: Look at this compound and give its reported T/C. COc1cc(C)c(/C=C/C(C)=C/c2cc(C)cc(=O)o2)c(C)c1C
Reply: 88 % of control

* * *

# Test system: P388 leukemia ip, CD2F1 mice, survival T/C
# assay_info: NCI In Vivo Anticancer Drug Screen. Data for tumor model P388 Leukemia (intraperitoneal) in CD2F1 (CDF1) mice
# condition_label: endpoint: median survival time; dose: 60.0 mg/kg/injection; schedule: Q01DX005 (ip); vehicle: saline with Tween-80; higher = longer survival
Inconclusive results and toxic doses are left out.
Please provide measured T/C for the entries that follow.

compound	endpoint_label	result
Cc1ccccc1OCC1COCN(C(C)(C)C)CO1 (centres undefined)	T/C	100 % of control
CC(=O)Nc1ccc2nc(/C=C/c3ccc(N(C)C)cc3)c(=O)oc2c1	T/C	102 % of control
Nc1nc2c(C(=O)N3CCCC3)nnn2c2cccc(Cl)c12	T/C	107 % of control

Okay, now this compound:
Task item: Look at this compound and give its reported T/C. CCc1ccc(-c2cc(-c3ccc(CC)cc3)cc(-c3ccc(CC)cc3)c2)cc1
Reply: 100 % of control

* * *

# Test system: P388 leukemia ip, CD2F1 mice, survival T/C
# assay_info: NCI In Vivo Anticancer Drug Screen. Data for tumor model P388 Leukemia (intraperitoneal) in CD2F1 (CDF1) mice
# condition_label: endpoint: median survival time; dose: 60.0 mg/kg/injection; schedule: Q01DX005 (ip); vehicle: saline with Tween-80; higher = longer survival
Toxic doses and inconclusive results are not listed.
Please provide measured T/C for the entries that follow.

Solved cases (5 shown):
molecule	experimental_target	T/C
COC(=O)C(=O)c1c(C(=O)OC)nc2nnc(N)n2c1-c1ccc(OC)cc1	P388 leukemia ip, CD2F1 mice, survival T/C	100 % of control
COC(=O)NCN(Cc1ccccc1)C(=O)CCCCCN	P388 leukemia ip, CD2F1 mice, survival T/C	104 % of control
CCOC(=O)C(=CNc1cc(C)c2[nH]c3ccc(Cl)cc3c2c1C)C(=O)OCC	P388 leukemia ip, CD2F1 mice, survival T/C	92 % of control
N=C(N)SC12CC3CC(CC(C3)C1)C2	P388 leukemia ip, CD2F1 mice, survival T/C	98 % of control
NC(=O)N(c1ccccc1)c1ccccn1	P388 leukemia ip, CD2F1 mice, survival T/C	97 % of control

For every item below, please supply its T/C.
1. CCN(CC)CCNc1c(C)cccc1Cl
2. Cc1ccc(NC(=O)CCCC(=O)C(C#N)c2ccccc2C)cc1C (stereo not drawn)
3. COC(=O)c1nc(N)nc(C(=O)OC)c1C(=O)c1cccs1

Reply:
["100 % of control", "113 % of control", "98 % of control"]

For every item below, please supply its T/C.
1. COC1=CC(=O)N/C1=C(\OC)c1ccccc1
2. CC(C)c1ccc2nc3ccc(C(=O)NCCN4CCN(c5ccccc5)CC4)cn3c(=O)c2c1
3. O=C(Nc1ccc(Cl)cc1)Nc1nnc2nc(C3(c4nc5nnc(NC(=O)Nc6ccc(Cl)cc6)n5[nH]c4=O)Cc4ccccc4C3=O)c(=O)[nH]n12
4. CCOC(=O)C1=C(NC23CC4CC(CC(C4)C2)C3)OCC1=O
5. COC(=O)c1[nH]c(=O)c(C#N)c(C(=O)OC)c1-c1ccccn1

Reply:
["90 % of control", "97 % of control", "103 % of control", "107 % of control", "93 % of control"]
